# System: hippocampal neurogenesis (Dentate Gyrus)
# METHOD_SUMMARY: in vivo neurogenesis assay (BrdU+ cells in dentate gyrus)
# Design: species or system mice
# DETAILS: living mice; vehicle (DMSO) 7.3
// reported Neurogenesis # BrdU+ Cells (X10E06)/mm3 Dentate Gyrus per item
MEASURE_NAME: Neurogenesis # BrdU+ Cells (X10E06)/mm3 Dentate Gyrus

| MOLECULE | MEASURED_VALUE |
| --- | --- |
| [O-][n+]1cccc2c1c1cc(Br)ccc1n2CC(O)COc1ccccc1 (stereo not drawn) | 11.0 (X10E06)/mm3 |
| O=C(O)c1cc2c3ccccc3n(CC(O)COc3ccccc3)c2cn1 (stereo not drawn) | 14.2 (X10E06)/mm3 |
| N#Cc1ccc2c(c1)c1ccccc1n2CC(O)COc1ccccc1 (stereo not drawn) | 10.4 (X10E06)/mm3 |
| COc1cccc(NC[C@@H](F)Cn2c3ccc(Br)cc3c3cc(Br)ccc32)n1 [(+)-S243] | 10.0 (X10E06)/mm3 |
| Cc1ccc2c(c1)c1cc(Br)ccc1n2CC(=O)O | 14.3 (X10E06)/mm3 |
| COc1cccc(N(CC(F)Cn2c3ccc(Br)cc3c3cc(Br)ccc32)S(=O)(=O)C(F)(F)F)c1 (stereo not drawn) | 15.5 (X10E06)/mm3 |
| Nc1cccc(SCC(O)Cn2c3ccc(Br)cc3c3cc(Br)ccc32)c1 (stereo not drawn) | 8.6 (X10E06)/mm3 |
| COc1cccc(NC(=O)C(O)Cn2c3ccc(Br)cc3c3cc(Br)ccc32)c1 (stereo not drawn) | 10.4 (X10E06)/mm3 |
| O=C(Cn1c2ccc(Br)cc2c2cc(Br)ccc21)NO | 13.1 (X10E06)/mm3 |
| OC(COc1ccccc1)Cn1c2c(c3cc(Br)ccc31)CN(C1CC1)CC2 (stereo not drawn) | 10.9 (X10E06)/mm3 |
| CC(C)(C)OC(=O)NCCCCCOc1ccc(S(=O)(=O)CC(O)Cn2c3ccc(Br)cc3c3cc(Br)ccc32)cc1 (stereo not drawn) | 11.3 (X10E06)/mm3 |
| Cc1cc(C)n(CC(O)Cn2c3ccc(Br)cc3c3cc(Br)ccc32)n1 (stereo not drawn) | 7.0 (X10E06)/mm3 |
| O=C(O)CN1c2ccccc2CCc2ccccc21 | 10.7 (X10E06)/mm3 |
| COc1cccc(NCC(O)Cn2c3ccccc3c3cc(Br)ccc32)c1 (stereo not drawn) | 9.5 (X10E06)/mm3 |
| CN1CCc2c(c3cc(Br)ccc3n2CC(O)COc2ccccc2)C1 (stereo not drawn) | 7.3 (X10E06)/mm3 |
| Brc1ccc2[nH]c3ccccc3c2c1 | 12.3 (X10E06)/mm3 |
| C#Cc1ccc2c(c1)c1cc(C#C)ccc1n2CC(O)CNc1cccc(OC)c1 (stereo not drawn) | 8.6 (X10E06)/mm3 |
| N#CCn1c2ccc(Br)cc2c2cc(Br)ccc21 | 11.7 (X10E06)/mm3 |
| Oc1cccc(SCC(O)CC2c3ccc(Br)cc3-c3cc(Br)ccc32)c1 (stereo not drawn) | 8.2 (X10E06)/mm3 |
| CN(C)C(CF)CN1c2ccccc2CCc2ccccc21 (stereo not drawn) | 11.6 (X10E06)/mm3 |
| COc1ccc2[nH]cc(CCNC(C)=O)c2c1 | 7.8 (X10E06)/mm3 |

All values here come from patent US9243281B2.
